assay: Blood/plasma partitioning in rats; assay type: in vitro ADME; conditions: rat, blood and plasma
result type: blood plasma ratio
API note: the answer field is a bare number with no unit suffix.

Query: What value of blood plasma ratio has been reported for the following compound? COc1cc(F)ccc1-c1ncnc(Nc2cccc(CS(N)(=O)=O)c2)n1
Reply: 3

###

experiment: MV4‐11 human AML xenograft model in rats; format: in vivo, rat; conditions: female, athymic nude, rat, in vivo, po, 12 mg kg^−1
result type: MTD at 14 days

Query: What value of MTD at 14 days has been reported for the following compound? COc1cc(F)ccc1-c1ncnc(Nc2cccc(C[S@](C)(=N)=O)c2)n1
Reply: 12 mg/kg

###

molecular target: CDK2/cyclinE(h) (Homo sapiens); test: Merck Millipore KinaseProfiler; conditions: IC50 CDK2/CycE(h), Millipore panel, 10 µM ATP
result type: IC50 (nM)
Your answer should be a plain number; it is taken to be in nM.

Query: What value of IC50 has been reported for the following compound? COc1cc(F)ccc1-c1ncnc(Nc2cccc(CS(N)(=O)=O)c2)n1
Reply: 470

###

assay: Rat PK study in vivo; settings: male, Wistar, plasma, iv
result type: half-life (min)
Your answer should be a plain number; it is taken to be in min.

Query: What value of half-life has been reported for the following compound? COc1cc(F)ccc1-c1ncnc(Nc2cccc(CS(N)(=O)=O)c2)n1 [BAY‐958]
Reply: 42

###

system: CYP1A2, CYP2C8, CYP2C9, CYP2D6, CYP3A4; assay: CYP inhibition in human liver microsomes; assay type: in vitro ADME
result type: IC50

# molecule, IC50
data = [
    ("COc1cc(F)ccc1-c1ncnc(Nc2cccc(C[S@](C)(=N)=O)c2)n1 [BAY 1143572]", "> 20 µM"),
]

Next item in the queue.
Query: What value of IC50 has been reported for the following molecule? COc1cc(F)ccc1-c1ncnc(Nc2cccc(CS(N)(=O)=O)c2)n1 [BAY‐958]
Reply: > 20 µM

###

molecular target: CDK9/CycT1 (Homo sapiens, UniProt P50750); experiment: CDK9/CycT1 kinase assay; assay type: biochemical
Sequence (P50750 whole entry): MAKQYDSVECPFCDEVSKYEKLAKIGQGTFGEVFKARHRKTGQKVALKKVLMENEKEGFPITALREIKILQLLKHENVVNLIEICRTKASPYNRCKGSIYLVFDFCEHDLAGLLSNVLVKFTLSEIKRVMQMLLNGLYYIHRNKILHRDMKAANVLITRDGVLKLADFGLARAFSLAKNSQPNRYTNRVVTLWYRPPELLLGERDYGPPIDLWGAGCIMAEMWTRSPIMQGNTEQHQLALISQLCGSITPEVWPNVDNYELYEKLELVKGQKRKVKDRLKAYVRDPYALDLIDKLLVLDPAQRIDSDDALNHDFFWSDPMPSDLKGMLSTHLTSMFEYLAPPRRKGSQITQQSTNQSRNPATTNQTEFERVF
Sequence (O60563 whole entry partner): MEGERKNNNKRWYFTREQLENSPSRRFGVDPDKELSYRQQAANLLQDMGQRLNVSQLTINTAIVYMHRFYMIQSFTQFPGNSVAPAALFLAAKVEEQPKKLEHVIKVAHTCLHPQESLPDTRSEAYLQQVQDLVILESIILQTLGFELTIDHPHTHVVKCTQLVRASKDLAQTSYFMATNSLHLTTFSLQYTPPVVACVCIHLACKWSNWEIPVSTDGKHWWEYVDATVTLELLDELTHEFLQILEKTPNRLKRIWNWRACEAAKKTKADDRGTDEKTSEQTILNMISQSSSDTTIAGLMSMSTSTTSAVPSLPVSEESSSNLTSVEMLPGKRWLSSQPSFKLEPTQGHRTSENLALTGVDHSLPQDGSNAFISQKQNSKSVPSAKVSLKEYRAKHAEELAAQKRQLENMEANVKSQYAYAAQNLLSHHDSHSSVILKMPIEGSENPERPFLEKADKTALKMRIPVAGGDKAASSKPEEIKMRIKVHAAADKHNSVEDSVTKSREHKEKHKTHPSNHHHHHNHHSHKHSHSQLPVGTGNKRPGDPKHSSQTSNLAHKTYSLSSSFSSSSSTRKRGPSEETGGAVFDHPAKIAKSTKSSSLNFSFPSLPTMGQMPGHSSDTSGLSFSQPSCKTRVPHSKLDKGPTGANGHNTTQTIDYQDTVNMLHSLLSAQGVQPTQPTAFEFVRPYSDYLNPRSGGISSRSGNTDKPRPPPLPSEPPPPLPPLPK
result type: IC50 (µM)
Your answer should be a plain number; it is taken to be in µM.

Query: What value of IC50 has been reported for the following compound? COc1cc(F)ccc1-c1ncnc(Nc2cccc(C(C)(C)S(C)(=O)=O)c2)n1
Reply: 1

Query: What value of IC50 has been reported for the following compound? COc1cc(F)ccc1-c1ncnc(Nc2cccc(S(C)(=O)=O)c2)n1
Reply: 0.032

Query: What value of IC50 has been reported for the following compound? COc1cc(F)ccc1-c1ncnc(Nc2cccc(C(F)(F)S(C)(=O)=O)c2)n1
Reply: 0.067

Query: What value of IC50 has been reported for the following compound? COc1cc(F)ccc1-c1ncnc(Nc2cccc(C(C)S(C)(=O)=O)c2)n1 (racemic)
Reply: 0.085

###

The entries below are paired with their reported pIC50.
biological target: CDK3/cyclinE(h) (Homo sapiens, UniProt Q00526); assay: Merck Millipore KinaseProfiler; conditions: IC50 CDK3/CycE(h), Millipore panel, 10 µM ATP
Sequence (Q00526 whole entry): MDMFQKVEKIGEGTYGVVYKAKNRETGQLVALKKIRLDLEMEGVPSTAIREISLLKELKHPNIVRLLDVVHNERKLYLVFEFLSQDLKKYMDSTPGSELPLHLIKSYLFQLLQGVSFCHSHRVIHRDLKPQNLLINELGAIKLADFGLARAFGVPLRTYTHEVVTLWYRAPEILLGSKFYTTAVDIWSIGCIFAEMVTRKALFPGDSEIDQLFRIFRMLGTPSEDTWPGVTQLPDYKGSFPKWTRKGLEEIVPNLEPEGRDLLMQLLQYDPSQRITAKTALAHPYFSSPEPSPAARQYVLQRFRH
Sequence (P24864 whole entry, further chain): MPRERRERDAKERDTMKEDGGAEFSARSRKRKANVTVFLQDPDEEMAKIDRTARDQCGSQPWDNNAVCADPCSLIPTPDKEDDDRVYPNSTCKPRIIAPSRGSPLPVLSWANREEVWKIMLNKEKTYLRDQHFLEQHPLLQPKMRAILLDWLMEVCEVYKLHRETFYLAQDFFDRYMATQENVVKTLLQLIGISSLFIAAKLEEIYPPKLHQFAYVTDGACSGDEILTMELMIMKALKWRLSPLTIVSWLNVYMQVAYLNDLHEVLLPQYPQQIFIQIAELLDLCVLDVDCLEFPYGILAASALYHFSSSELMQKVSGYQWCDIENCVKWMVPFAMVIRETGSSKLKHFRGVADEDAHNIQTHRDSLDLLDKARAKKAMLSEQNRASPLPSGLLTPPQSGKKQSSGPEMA
Keep in mind that pIC50 stands for -log10 of concentration in molar terms.

# compound, pIC50
records = [
    ("COc1cc(F)ccc1-c1ncnc(Nc2cccc(CS(N)(=O)=O)c2)n1 [BAY‐958]", 6.24),
]

Query: What value of pIC50 has been reported for the following compound? COc1cc(F)ccc1-c1ncnc(Nc2cccc(C[S@](C)(=N)=O)c2)n1 [BAY 1143572]
Reply: 6.05
